The measurements presented in this section are drawn from patent US10076519B2.

# System: rabbit skeletal myofibrils (fast skeletal myofibrils)
# EXPERIMENTAL PROTOCOL: Activation of fast skeletal myofibrils (PUMA assay, PK/LDH-coupled ATPase at pCa25)
# Assay type: biochemical
# CONDITIONS: median AC1.4 reported as class; procedure of Example 39
# Source text: Preparation of Fast Skeletal Myofibrils. […] Fast fiber activators were identified by measuring the enzymatic activity of muscle myofibril preparations using the proprietary PUMA™ (see, e.g., U.S. Pat. Nos. 6,410,254, 6,743,599, 7,202,051, and 7,378,254) assay system. […] This assay regenerates myosin-produced ADP into ATP by oxidizing NADH, producing an absorbance change at 340 nm. […]
MEASURE: Mean AC1.4

Worked set:
molecule_smiles=Cc1cc(NCC2(c3ncccc3F)CCC2)nnc1-c1ncc(C(N)=O)s1 measure="Mean AC1.4" result="A (A=<1 uM)"
molecule_smiles=Cc1cc(C(N)=O)cc(-c2ccc(NC[C@]3(c4ncccc4F)C[C@H](F)C3)nn2)c1 measure="Mean AC1.4" result="B (B=1-10 uM)"
molecule_smiles=C[C@H](N)C(=O)OCC(=O)NCc1cnc(-c2ccc(NCC3(c4ncccc4F)CCC3)nn2)s1 measure="Mean AC1.4" result="A (A=<1 uM)"
molecule_smiles=COc1ncc(-c2ccc(NC[C@]3(c4ncccc4F)C[C@H](F)C3)nn2)cc1C measure="Mean AC1.4" result="D (D=>20 uM)"
molecule_smiles=COc1c(C(N)=O)cccc1-c1ccc(NC[C@]2(c3ncccc3F)C[C@H](F)C2)nn1 measure="Mean AC1.4" result="D (D=>20 uM)"
molecule_smiles=Cc1c(-c2ccc(NCC3(c4ncccc4F)CCC3)nn2)[nH][nH]c1=O measure="Mean AC1.4" result="D (D=>20 uM)"

// map CN(C)C(=O)c1cc(-c2ccc(NC[C@]3(c4ncccc4F)C[C@H](F)C3)nn2)ccc1O to recorded Mean AC1.4 (system: rabbit skeletal myofibrils (fast skeletal myofibrils)) B (B=1-10 uM)

// map CC1(C)C(=O)NN=C1c1ccc(NCC2(c3ncccc3F)CCC2)nn1 to recorded Mean AC1.4 (system: rabbit skeletal myofibrils (fast skeletal myofibrils)) D (D=>20 uM)

---

# System: rabbit skeletal myofibrils (fast skeletal myofibrils)
# EXPERIMENTAL PROTOCOL: Activation of fast skeletal myofibrils (PUMA assay, PK/LDH-coupled ATPase at pCa25)
# Format: biochemical
# CONDITIONS: AC1.4 determined according to the procedure of Example 39; reported as class symbols
MEASURE: Mean AC1.4

molecule_smiles=CC(C)=Cc1ccc(NCC(C)(C)c2ccc(F)cc2)nn1 result="B (B=1-10 uM)"
molecule_smiles=CC(C)(CNc1ccc(-c2ccc3[nH]c(=O)[nH]c3c2)nn1)c1ccccc1 result="A (A=<1 uM)"
molecule_smiles=CC(C)(CNc1ccc(C2=CCN(S(C)(=O)=O)CC2)nn1)c1ccc(F)cc1 result="B (B=1-10 uM)"
molecule_smiles=Nc1n[nH]c2ccc(-c3ccc(NCC4(c5ccccc5)CC4)nn3)cc12 result="A (A=<1 uM)"
molecule_smiles=CC(C)(CNc1ccc(-c2cccc(C(N)=O)c2)nn1)c1ccc(Cl)cc1 result="B (B=1-10 uM)"

// map CC(C)(CNc1ccc(-c2cc(=O)[nH]c(N)n2)nn1)c1ccc(F)cc1 to recorded Mean AC1.4 (system: rabbit skeletal myofibrils (fast skeletal myofibrils)) B (B=1-10 uM)

// map Fc1ccc(C2(CNc3ccc(-c4ccc5[nH]ncc5c4)nn3)CCC2)cc1 to recorded Mean AC1.4 (system: rabbit skeletal myofibrils (fast skeletal myofibrils)) A (A=<1 uM)

// map CC(C)(CNc1ccc(-c2ccc3[nH]nc(N)c3c2)nn1)c1ccc(F)cn1 to recorded Mean AC1.4 (system: rabbit skeletal myofibrils (fast skeletal myofibrils)) B (B=1-10 uM)

// map CC(=O)Nc1n[nH]c2ccc(-c3ccc(NCC4(c5ncccc5F)CCC4)nn3)cc12 to recorded Mean AC1.4 (system: rabbit skeletal myofibrils (fast skeletal myofibrils)) B (B=1-10 uM)

---

# System: rabbit skeletal myofibrils (fast skeletal myofibrils)
# EXPERIMENTAL PROTOCOL: Activation of fast skeletal myofibrils (PUMA assay, PK/LDH-coupled ATPase at pCa25)
# Type: biochemical
# CONDITIONS: AC1.4 determined according to the procedure of Example 39; reported as class symbols
MEASURE: Mean AC1.4

Worked set:
molecule_smiles=Nc1ccc(-c2ccc(NCC3(c4ncccc4F)CCC3)nn2)nc1 result="A (A=<1 uM)"
molecule_smiles=CC(C)(CNc1ccc(-c2ccc3oc(=O)[nH]c3c2)nn1)c1ccc(F)cc1 result="B (B=1-10 uM)"
molecule_smiles=CCOC(=O)c1cc(-c2ccc(NCC(C)(C)c3ccc(F)cc3)nn2)ccc1F result="B (B=1-10 uM)"
molecule_smiles=CC(C)(CNc1ccc(-c2cccc3[nH]ncc23)nn1)c1ccc(F)cc1 result="A (A=<1 uM)"
molecule_smiles=CC(C)(CNc1ccc(-c2cccc(Cl)c2)nn1)c1ccc(F)cc1 result="A (A=<1 uM)"
molecule_smiles=CC(C)(CNc1ccc(-c2cccc(C(=O)NCCO)c2)nn1)c1ccc(F)cc1 result="B (B=1-10 uM)"

Sample COc1ccnc(C2(CNc3ccc(-c4cc(C(N)=O)ccc4F)nn3)CCC2)c1 — what was its Mean AC1.4? B (B=1-10 uM)

Sample CC(C)(CNc1ccc(-c2cnc3[nH]ncc3c2)nn1)c1ccc(F)cc1 — what was its Mean AC1.4? B (B=1-10 uM)

Sample CC(=O)Nc1ccc(-c2ccc(NCC(C)(C)c3ccc(F)cc3)nn2)cn1 — what was its Mean AC1.4? B (B=1-10 uM)

Sample NC(=O)c1cccc(-c2ccc(NCC3(c4ccccn4)CCC3)nn2)c1 — what was its Mean AC1.4? A (A=<1 uM)

---

# System: rabbit skeletal myofibrils (fast skeletal myofibrils)
# EXPERIMENTAL PROTOCOL: Activation of fast skeletal myofibrils (PUMA assay, PK/LDH-coupled ATPase at pCa25)
# Format: biochemical
# CONDITIONS: median AC1.4 class, procedure of Example 39
MEASURE: Mean AC1.4

Worked set:
molecule_smiles=Fc1cccnc1C1(CNc2ccc(-c3nn[nH]n3)nn2)CCC1 tested_target="rabbit skeletal myofibrils (fast skeletal myofibrils)" result="D (D=>20 uM)"
molecule_smiles=NC(=O)c1ccc(-c2ccc(NC3(c4ccc(F)cc4)CCC3)nn2)s1 tested_target="rabbit skeletal myofibrils (fast skeletal myofibrils)" result="B (B=1-10 uM)"
molecule_smiles=NCc1ccc(-c2ccc(NCC3(c4ncccc4F)CCC3)nn2)cc1 tested_target="rabbit skeletal myofibrils (fast skeletal myofibrils)" result="B (B=1-10 uM)"
molecule_smiles=O=c1[nH]nc(-c2ccc(F)c(-c3ccc(NCC4(c5ncccc5F)CCC4)nn3)c2)[nH]1 tested_target="rabbit skeletal myofibrils (fast skeletal myofibrils)" result="A (A=<1 uM)"
molecule_smiles=C=Cc1ccc(NC2(c3ncccc3F)CCC2)nn1 tested_target="rabbit skeletal myofibrils (fast skeletal myofibrils)" result="D (D=>20 uM)"
molecule_smiles=Fc1cccnc1C1(CNc2ccc(-c3ccc4[nH]ncc4c3)nn2)CC(F)(F)C1 tested_target="rabbit skeletal myofibrils (fast skeletal myofibrils)" result="B (B=1-10 uM)"
molecule_smiles=COc1ccnc(C2(Nc3ccc(-c4cccc(C(N)=O)c4)nn3)CCC2)c1 tested_target="rabbit skeletal myofibrils (fast skeletal myofibrils)" result="D (D=>20 uM)"
molecule_smiles=COc1nc(-c2ccc(NCC3(c4ncccc4F)CCC3)nn2)sc1C(N)=O tested_target="rabbit skeletal myofibrils (fast skeletal myofibrils)" result="A (A=<1 uM)"
molecule_smiles=NC(=O)c1noc(-c2ccc(NCC3(c4ncccc4F)CCC3)nn2)n1 tested_target="rabbit skeletal myofibrils (fast skeletal myofibrils)" result="B (B=1-10 uM)"
molecule_smiles=NC(=O)c1ccc(F)c(-c2ccc(NC3(c4ccc(F)cc4)CCC3)nn2)c1 tested_target="rabbit skeletal myofibrils (fast skeletal myofibrils)" result="A (A=<1 uM)"

// map NC(=O)c1cnc(-c2ccc(NC3(c4ncccc4F)CCC3)nn2)s1 to recorded Mean AC1.4 (system: rabbit skeletal myofibrils (fast skeletal myofibrils)) B (B=1-10 uM)

---

# System: rabbit skeletal myofibrils (fast skeletal myofibrils)
# EXPERIMENTAL PROTOCOL: Activation of fast skeletal myofibrils (PUMA assay, PK/LDH-coupled ATPase at pCa25)
# Assay type: biochemical
# CONDITIONS: AC1.4 determined according to the procedure of Example 39; reported as class symbols
MEASURE: Mean AC1.4

Worked set:
molecule_smiles=COc1cccc(-c2ccc(NCC(C)(C)c3ccc(F)cc3)nn2)n1 measure="Mean AC1.4" result="A (A=<1 uM)"
molecule_smiles=NC(=O)c1cccc(-c2ccc(NCC3(c4cccc(C(N)=O)n4)CCC3)nn2)c1 measure="Mean AC1.4" result="D (D=>20 uM)"
molecule_smiles=NC(=O)c1ccc(F)c(-c2ccc(NCC3(c4cc(O)ccn4)CCC3)nn2)c1 measure="Mean AC1.4" result="D (D=>20 uM)"
molecule_smiles=CC(C)Nc1n[nH]c2ccc(-c3ccc(NCC4(c5ncccc5F)CCC4)nn3)cc12 measure="Mean AC1.4" result="A (A=<1 uM)"

Sample CC(C)(CNc1ccc(C(=O)N[C@@H](CO)C(N)=O)nn1)c1ccc(F)cc1 — what was its Mean AC1.4? D (D=>20 uM)
